# target: Bovine type 1 trypsin (Bos taurus, UniProt P00760)
# Sequence (P00760 24-246): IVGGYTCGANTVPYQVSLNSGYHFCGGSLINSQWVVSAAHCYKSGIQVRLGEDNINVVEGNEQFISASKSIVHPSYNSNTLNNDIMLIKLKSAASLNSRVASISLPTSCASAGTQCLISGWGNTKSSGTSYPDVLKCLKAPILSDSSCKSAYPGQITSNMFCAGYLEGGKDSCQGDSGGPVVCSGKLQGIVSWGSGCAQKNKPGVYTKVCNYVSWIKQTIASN
pIC50: −log10 of the molar value.
readout: pIC50

Examples with their reported pIC50 follow.
CC(=O)N1C[C@H]2C[C@H]2C1C(=O)NC(CCCNC(=N)N)C(=O)c1nc2ccccc2s1 (some centres unmarked) [Compound 8]: 6.72
Cc1ccc(S(=O)(=O)N2CCC[C@H]2C(=O)NC(CCCNC(=N)N)C(=O)c2nc3ccccc3s2)cc1 (some centres unmarked) [Compound 7]: 6.64
N=C(N)NCCC[C@H](NC(=O)[C@@H]1CCCN1C(=O)[C@@H](CC1CCCCC1)NCC(=O)O)C(=O)c1nc2ccccc2s1 [Compound 27]: 7.44
COC(=O)N1CCC[C@H]1C(=O)NC(CCCNC(=N)N)C(=O)c1nc2ccccc2s1 (some centres unmarked) [Compound 11]: 7.41
N=C(N)NCCCC(NC(=O)CCC(N)=O)C(=O)c1nc2ccccc2s1 (centres unmarked) [Compound 23]: 7.03

[P] CC(=O)N[C@H]1CCCN(CC(=O)NC(CCCNC(=N)N)C(=O)c2nc3ccccc3s2)C1=O (some centres unmarked) [Compound 19]
[Q] N=C(N)NCCC[C@H](NC(=O)[C@@H]1CCCN1C(=O)[C@H](CO)NS(=O)(=O)c1cccc2ccccc12)C(=O)c1nc2ccccc2s1 [Compound 29]
[R] CC(=O)NC1CCC(C(=O)NC(CCCNC(=N)N)C(=O)c2nc3ccccc3s2)CC1 (centres unmarked) [Compound 17]
Arrange the 3 molecules from largest to smallest pIC50. Sort the labels as requested; that list is your answer.
Q, P, R

====

# target: human Lung Tryptase
# Construct: 1.0 nM human Lung Tryptase
# method.summary: Tryptase IC50 method, chromogenic substrate hydrolysis
# experimental.context: 1.0 nM human lung tryptase, 500 μM N-p-Tosyl-GLY-PRO-LYS-pNA, 37° C.
pIC50: −log10 of the molar value.
readout: pIC50

N=C(N)NCCCC(NC(=O)CCC(N)=O)C(=O)c1nc2ccccc2s1 (stereo not drawn) [Compound 23]: 6.59
N=C(N)NCCC[C@H](NC(=O)CN1CCCC[C@H](NS(=O)(=O)Cc2ccccc2)C1=O)C(=O)c1nc2ccccc2s1 [Compound 28]: 7.00
CC(=O)N[C@H]1CCCN(CC(=O)NC(CCCNC(=N)N)C(=O)c2nc3ccccc3s2)C1=O (stereo partly drawn) [Compound 19]: 4.92
CC(=O)N1C[C@H]2C[C@H]2C1C(=O)NC(CCCNC(=N)N)C(=O)c1nc2ccccc2s1 (stereo partly drawn) [Compound 8]: 6.96
CC(=O)N[C@H]1CCC[C@H]1C(=O)NC(CCCNC(=N)N)C(=O)c1nc2ccccc2s1 (stereo partly drawn) [Compound 3]: 5.77
CS(=O)(=O)N1CCC[C@H]1C(=O)NC(CCCNC(=N)N)C(=O)c1nc2ccccc2s1 (stereo partly drawn) [Compound 6]: 6.85
CCCC(CCC)C(=O)N[C@@H](CC(=O)OC)C(=O)N1CCC[C@H]1C(=O)N[C@@H](CCCNC(=N)N)C(=O)c1nc2ccccc2s1 [Compound 26]: 6.96
COC(=O)N1CCC[C@H]1C(=O)NC(CCCNC(=N)N)C(=O)c1nc2ccccc2s1 (stereo partly drawn) [Compound 11]: 5.62
CC(=O)NC1CCC(C(=O)NC(CCCNC(=N)N)C(=O)c2nc3ccccc3s2)CC1 (stereo not drawn) [Compound 17]: 5.03
N=C(N)NCCC[C@H](NC(=O)[C@@H]1CCCN1C(=O)[C@@H](CC1CCCCC1)NCC(=O)O)C(=O)c1nc2ccccc2s1 [Compound 27]: 7.47

[P] CN[C@H](Cc1ccccc1)C(=O)N1CCC[C@H]1C(=O)N[C@@H](Cc1cccc(C(=N)N)c1)C(=O)c1nc2ccccc2s1 [Compound 31]
[Q] CN[C@H](Cc1ccccc1)C(=O)N1CCC[C@H]1C(=O)N[C@@H](CC1CCCN(C(=N)N)C1)C(=O)c1nc2ccccc2s1 (stereo partly drawn) [Compound 30]
Response body: label of entry with the larger pIC50; valid values P , Q . Mark your selection by writing its label.
Q

[a] N=C(N)NCCCC(NC(=O)[C@@H]1CCCN1C(=O)c1ccccc1)C(=O)c1nc2ccccc2s1 (stereo partly drawn) [Compound 34]
[b] N=C(N)NCCCC(NC(=O)C1CCCCC1C(N)=O)C(=O)c1nc2ccccc2s1 (stereo not drawn) [Compound 16]
In terms of reported pIC50, does a or b have the smaller number? Respond using the label that marks the chosen record.
a

[P] CC(=O)N[C@@H](CC1CCCCC1)C(=O)NC(CCCNC(=N)N)C(=O)c1nc2ccccc2s1 (stereo partly drawn) [Compound 32]
[Q] CS(=O)(=O)N1C[C@H](O)C[C@H]1C(=O)NC(CCCNC(=N)N)C(=O)c1nc2ccccc2s1 (stereo partly drawn) [Compound 5]
[R] Cc1ccc(S(=O)(=O)N2CCC[C@H]2C(=O)NC(CCCNC(=N)N)C(=O)c2nc3ccccc3s2)cc1 (stereo partly drawn) [Compound 7]
[S] N=C(N)NCCC[C@H](NC(=O)[C@@H]1CCCN1C(=O)[C@H](CO)NS(=O)(=O)c1cccc2ccccc12)C(=O)c1nc2ccccc2s1 [Compound 29]
I would appreciate it if you could sort these 4 compounds by pIC50, starting from the smallest number. Use the labels to give the requested order.
R, P, Q, S
(R: 5.85, P: 6.36, Q: 7.00, S: 7.85)
